# Target Under Test: PI3Kalpha (Homo sapiens, UniProt P42336)
# Construct: His (N)
# Sequence (P27986 whole entry): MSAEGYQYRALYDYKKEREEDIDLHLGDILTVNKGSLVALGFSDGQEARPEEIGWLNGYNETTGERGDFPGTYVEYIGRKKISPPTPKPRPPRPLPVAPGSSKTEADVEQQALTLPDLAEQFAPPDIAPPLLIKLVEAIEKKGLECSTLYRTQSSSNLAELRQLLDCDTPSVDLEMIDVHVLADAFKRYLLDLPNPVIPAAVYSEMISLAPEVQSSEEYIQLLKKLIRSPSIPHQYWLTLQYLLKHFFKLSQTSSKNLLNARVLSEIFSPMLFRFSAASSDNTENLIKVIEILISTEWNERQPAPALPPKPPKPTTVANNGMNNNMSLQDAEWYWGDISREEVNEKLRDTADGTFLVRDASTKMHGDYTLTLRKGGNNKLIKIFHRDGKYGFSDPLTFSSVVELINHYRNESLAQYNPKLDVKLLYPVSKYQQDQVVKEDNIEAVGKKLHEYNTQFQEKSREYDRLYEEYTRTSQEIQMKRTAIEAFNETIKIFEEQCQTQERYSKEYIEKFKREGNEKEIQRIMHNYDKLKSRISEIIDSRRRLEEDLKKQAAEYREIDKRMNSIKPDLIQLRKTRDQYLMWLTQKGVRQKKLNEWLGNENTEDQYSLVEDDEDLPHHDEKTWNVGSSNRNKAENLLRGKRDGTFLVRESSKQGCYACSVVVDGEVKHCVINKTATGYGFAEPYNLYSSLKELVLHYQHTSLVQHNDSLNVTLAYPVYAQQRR
# Sequence (P42336 whole entry): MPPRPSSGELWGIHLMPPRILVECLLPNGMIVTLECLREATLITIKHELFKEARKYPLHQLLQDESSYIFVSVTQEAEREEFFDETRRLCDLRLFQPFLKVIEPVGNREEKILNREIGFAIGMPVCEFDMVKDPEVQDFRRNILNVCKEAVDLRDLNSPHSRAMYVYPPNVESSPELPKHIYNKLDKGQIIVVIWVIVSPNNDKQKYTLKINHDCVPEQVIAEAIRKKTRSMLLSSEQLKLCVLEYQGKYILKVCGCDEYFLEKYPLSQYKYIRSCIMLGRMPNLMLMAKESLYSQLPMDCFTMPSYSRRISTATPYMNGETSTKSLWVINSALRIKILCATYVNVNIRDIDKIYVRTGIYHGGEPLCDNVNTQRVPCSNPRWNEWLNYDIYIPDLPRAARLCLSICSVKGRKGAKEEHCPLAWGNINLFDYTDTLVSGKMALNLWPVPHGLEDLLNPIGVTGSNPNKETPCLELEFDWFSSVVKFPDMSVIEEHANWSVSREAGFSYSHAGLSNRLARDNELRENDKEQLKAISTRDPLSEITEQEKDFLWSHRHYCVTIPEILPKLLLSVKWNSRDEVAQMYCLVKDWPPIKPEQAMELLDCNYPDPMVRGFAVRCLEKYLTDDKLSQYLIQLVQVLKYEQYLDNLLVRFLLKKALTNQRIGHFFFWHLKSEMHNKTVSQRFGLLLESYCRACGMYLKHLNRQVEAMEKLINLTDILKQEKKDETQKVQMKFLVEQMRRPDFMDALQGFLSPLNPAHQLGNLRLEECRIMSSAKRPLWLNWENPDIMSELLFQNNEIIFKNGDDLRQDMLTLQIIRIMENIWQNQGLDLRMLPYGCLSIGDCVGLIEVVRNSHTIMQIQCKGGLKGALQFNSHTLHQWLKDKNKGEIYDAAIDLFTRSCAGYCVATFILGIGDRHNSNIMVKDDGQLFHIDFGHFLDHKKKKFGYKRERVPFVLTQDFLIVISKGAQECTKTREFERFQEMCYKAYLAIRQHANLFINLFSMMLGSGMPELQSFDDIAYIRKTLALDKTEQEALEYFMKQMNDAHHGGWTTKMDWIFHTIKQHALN
# Assay Summary: Inhibition of PI3Kalpha-induced PIP-2 phosphorylation (filter-binding assay, 33P-ATP)
# Condition Label: PI3 Kinase alpha (p85alpha/His-p110alpha), 1 μM ATP; read-out: IC50 PI3Kα
pIC50: −log10 of the molar value.
Parameter Measured: pIC50

Please review the following examples before continuing.
> print(dat)
                                smiles.text                         target.under.test  parameter.measured  obs.value
1  CCc1ncnc(-c2ccccc2OC)c1C#Cc1cnc(C)c(NS(C)(=O)=O)c1  PI3Kalpha (Homo sapiens, UniProt P42336)               pIC50       7.92
2  CCc1ccc(S(=O)(=O)Nc2cc(C#Cc3c(CC)ncnc3-c3ccnc(C)c3)cnc2C)cc1  PI3Kalpha (Homo sapiens, UniProt P42336)               pIC50       8.30
3  CCc1ncnc(-c2ccc(CN)nc2)c1C#Cc1cnc(C)c(NS(=O)(=O)c2ccc(F)cc2F)c1  PI3Kalpha (Homo sapiens, UniProt P42336)               pIC50       9.19
4  CCc1ncnc(-c2ccc(OC)cc2F)c1C#Cc1cnc(C)c(NS(C)(=O)=O)c1  PI3Kalpha (Homo sapiens, UniProt P42336)               pIC50       8.05

1. CCc1ncnc(-c2ccc(C(=O)N3CCN(C)CC3)c(F)c2)c1C#Cc1cnc(C)c(NS(C)(=O)=O)c1
2. CCc1ncnc(-c2ccc(CN)nc2)c1C#Cc1cnc(C)c(NS(=O)(=O)c2ccccc2C(F)(F)F)c1
3. CCc1ncnc(-c2ccc(CNC(=O)OC(C)(C)C)nc2)c1C#Cc1cnc(C)c(NS(=O)(=O)c2ccc(F)cc2F)c1
4. CCc1ncnc(-c2cccc(CN(C)C)c2)c1C#Cc1cnc(C)c(NS(C)(=O)=O)c1
5. CCc1ncnc(-c2cc(C(F)(F)F)ccc2OC)c1C#Cc1cnc(C)c(NS(C)(=O)=O)c1
# input Sort the compounds on pIC50; start with the lowest figure. Ranked list of labels, please, in the requested order.
# output 5, 4, 1, 2, 3
(5: 6.87, 4: 8.15, 1: 8.52, 2: 9.03, 3: 9.38)

I. CCc1ncnc(-c2ccnc(C)c2)c1C#Cc1cnc(C)c(NS(=O)(=O)c2ccc(F)cc2F)c1
II. COc1ncc(C#Cc2c(C)nc(N)nc2-c2ccnc(C)c2)cc1NS(C)(=O)=O
# input Which of these two has the smaller recorded pIC50: I or II ? Lab note: record the label of whichever item you select.
# output II

I. CCc1nc(N)nc(-c2cccc(CN(C)C)c2)c1C#Cc1cnc(C)c(NS(C)(=O)=O)c1
II. CCc1ncnc(-c2ccnc(C)c2)c1C#Cc1cnc(C)c(NS(=O)(=O)c2ccccc2C)c1
III. CCc1nc(N)nc(-c2cccc(F)c2)c1C#Cc1cnc(C)c(NS(C)(=O)=O)c1
# input Put the compounds in ascending order of pIC50. To answer, write out the labels according to the requested order.
# output I, III, II
(I: 8.22, III: 8.70, II: 9.06)

----------
# Test system: H460 cells
# Assay Summary: alamarBlue H460 cell assay (antiproliferative/cytotoxicity)
# Assay type: cell-based
# Condition Label: NCI-H460; H460 human lung carcinoma cells
The entries below are paired with their reported EC50.
Please respond with the number in nM and leave the unit unwritten.

Sample answers from the record:
> print(dat)
                                   molecule  target.under.test  obs.value
1  CCc1ncnc(-c2ccc(C(=O)N(C)C)cc2F)c1C#Cc1cnc(C)c(NS(C)(=O)=O)c1 [Example 72]         H460 cells       3030
2  CCc1ncnc(-c2ccc(C)nc2)c1C#Cc1cnc(C)c(NS(=O)(=O)c2ccc(F)cc2F)c1 [Example 9]         H460 cells         49
3  CCc1nc(N)nc(-c2ccc(C)nc2)c1C#Cc1cnc(C)c(NS(C)(=O)=O)c1 [Example 14]         H460 cells        305

# input Write down measured EC50 (H460 cells) for this molecule. CCc1ncnc(-c2ccnc(C)c2)c1C#Cc1cnc(C)c(NS(=O)(=O)c2ccccc2OC)c1 [Example 96]
# output 93

# input Check H460 cells data and give EC50 for COc1ncc(C#Cc2c(C)ncnc2-c2ccnc(C)c2)cc1NS(=O)(=O)c1ccc(F)cc1F [Example 44] .
# output 15

# input Provide EC50, system H460 cells, entry CCc1nc(N)nc(-c2ccc(C(=O)N3CCN(C)CC3)c(F)c2)c1C#Cc1cnc(C)c(NS(C)(=O)=O)c1 [Example 82]
# output 2270

# input Give EC50 for CCc1ncnc(-c2cccc(C#N)c2)c1C#Cc1cnc(C)c(NS(C)(=O)=O)c1 [Example 55] tested on H460 cells.
# output 945

# input Jot down EC50 (H460 cells) of CCc1ncnc(-c2cc(C)nc(C)c2)c1C#Cc1cnc(C)c(NS(C)(=O)=O)c1 [Example 6] .
# output 169
